I'd be grateful if you could share measured protein stability index for these entries.
system: Saccharomyces cerevisiae; experiment: protein stability index of tFT-peptide fusion in deletion strain of DAS1 (PSI (0-1 scale)); higher = more stable (slower turnover);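 note: PSI is a weighted mean of each variant's read distribution over the sorted stability bins, computed only for variants having over 10 reads in total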
The answer should be a number; do not append a unit.

Requested field: protein stability index. Item: `PDKRNHLIILLN` 0.66

What about `CTSCGYVFRTNN` ? 0.698

What about `ARWRVGLWIGAS` ? 0.572

What about `PDCRNHLIKLLN` ? 0.673

What about `FSMRWTFRYYVN` ? 0.482

What about `SDKRNHLIKLLN` ? 0.607

What about `ARERVGLWRGAS` ? 0.726

What about `CTSCGYKFYTNN` ? 0.701

What about `KKHKKGQNQKIN` ? 0.625

What about `FSMRVTFRYWVN` ? 0.352

What about `PSLAASFWRVNG` ? 0.702

What about `PDIRNHLIKLLN` ? 0.675

What about `CTSCGYKFRWNN` ? 0.737

What about `CTSCGYKFRYNN` ? 0.702

What about `ARNRVGLWRGAS` ? 0.693

What about `ARWRVGLTRGAS` ? 0.679

What about `CTSCGQKFRTNN` ? 0.686

What about `LKILRQKMNWQN` ? 0.661

What about `PSLAASFWRVVW` ? 0.683

What about `RLIQPRPVQFLN` ? 0.613

What about `LVVYLSCVACINP` ? 0.0332

What about `LKILRQKMNHQC` ? 0.635

What about `KKHKKGQKVKIN` ? 0.615

What about `FSMRWTFRYWRN` ? 0.531

What about `PDKRNHLIVLLN` ? 0.637

What about `ASWRVGLWRGAS` ? 0.703

What about `CTSCGYKFRTNNP` ? 0.69

src = the supplement of paper PMC10724198
